Molecular target: Calpain-2 catalytic subunit (Sus scrofa)
Sequence (P43367 whole entry): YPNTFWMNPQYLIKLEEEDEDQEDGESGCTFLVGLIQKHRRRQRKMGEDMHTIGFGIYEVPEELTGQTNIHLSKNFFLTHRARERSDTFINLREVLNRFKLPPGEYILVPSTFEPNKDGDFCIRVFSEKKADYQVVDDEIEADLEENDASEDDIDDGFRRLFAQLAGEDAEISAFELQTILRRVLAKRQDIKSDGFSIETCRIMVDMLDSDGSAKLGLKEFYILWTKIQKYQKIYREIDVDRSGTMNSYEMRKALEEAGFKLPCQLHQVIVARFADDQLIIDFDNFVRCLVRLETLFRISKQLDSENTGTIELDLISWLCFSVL
Assay: pig calpain II inhibitor potency, dose response, biochemical, fluorogenic peptide substrate (AID 1420)
Assay type: functional
ASSAY READOUT: IC50

{"COMPOUND": "CC1=Nc2ccccc2N=C(NC(=O)CN2CCN(c3ccccc3)CC2)C1c1ccccc1 (stereo unspecified)", "REPORTED VALUE": "> 50 µM (not active)"}
{"COMPOUND": "O=C(c1ccc2c(c1)OCO2)N1CCN(c2ccc(C(F)(F)F)cn2)CC1", "REPORTED VALUE": "< 0.4 µM (not active)"}
{"COMPOUND": "Cc1ccc(NC2=C/C(=N/S(=O)(=O)c3cccs3)c3ccccc3C2=O)cc1C", "REPORTED VALUE": "22.3 µM (not active)"}
{"COMPOUND": "O=C(Nc1ccc(Cl)c(Cl)c1)N1N=CCC1c1ccccc1 (stereo unspecified)", "REPORTED VALUE": "8.45 µM (not active)"}
{"COMPOUND": "O=C1NC(=S)S/C1=C\\c1cc2ccccc2nc1N1CCCCC1", "REPORTED VALUE": "1.63 µM (not active)"}
{"COMPOUND": "CCC(C(=O)OCC(=O)Nc1ccccc1-c1ccccc1)c1ccccc1 (stereo unspecified)", "REPORTED VALUE": "9.96 µM (not active)"}
{"COMPOUND": "CS(=O)(=O)N(CC(=O)NCCc1ccccc1)c1cccc([N+](=O)[O-])c1", "REPORTED VALUE": "5.74 µM (not active)"}
{"COMPOUND": "COc1ccc(N2CCN(C(=O)CCC(=O)c3cc(C)sc3C)CC2)cc1", "REPORTED VALUE": "30.3 µM (not active)"}
{"COMPOUND": "COc1cc(/C=N/NP(=S)(c2ccccc2)c2ccccc2)ccc1O", "REPORTED VALUE": "14.2 µM (not active)"}
{"COMPOUND": "COCCNC(=O)NC(=O)CN1CCCc2ccccc21", "REPORTED VALUE": "< 0.4 µM (not active)"}
{"COMPOUND": "S=c1[nH]nc(-c2sccc2OCc2ccc(Cl)cc2Cl)[nH]1", "REPORTED VALUE": "10.1 µM (not active)"}

----------
Recorded below: AC50, system Cytochrome P450 2C9 (Homo sapiens).

{"MOLECULE": "CN(C)S(=O)(=O)c1ccc(NC(=O)c2cc(F)c(F)cc2Cl)cc1", "AC50": "inconclusive"}
{"MOLECULE": "COc1ccc(-c2nnc(SCc3cccc(C)c3)n2N)cc1", "AC50": "inconclusive"}
{"MOLECULE": "CCOCCCNC(=O)C1CCN(S(=O)(=O)N2CC(C)CC(C)C2)CC1 (stereo not drawn)", "AC50": "inconclusive"}

----------
The following molecules are shown together with reported Absolute IC50 (XBP1) values.
Target: UniProt:P17861
Sequence (P17861 whole entry): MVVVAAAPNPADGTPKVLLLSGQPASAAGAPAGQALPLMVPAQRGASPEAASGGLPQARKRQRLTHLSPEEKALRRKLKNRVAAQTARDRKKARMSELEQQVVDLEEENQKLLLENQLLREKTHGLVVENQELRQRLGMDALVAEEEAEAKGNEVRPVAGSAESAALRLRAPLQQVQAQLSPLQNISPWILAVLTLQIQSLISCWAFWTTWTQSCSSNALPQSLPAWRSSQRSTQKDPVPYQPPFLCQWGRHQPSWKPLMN
Type: functional, Cricetulus griseus

{"MOLECULE": "Oc1ccc(Br)cc1-c1nc2cnccn2c1NC1CCCCC1", "Absolute IC50 (XBP1)": "10 µM"}
{"MOLECULE": "Cc1ccccc1OCc1n(CC(=O)OC2CC(C)CCC2C(C)C)c2ccccc2[n+]1C.[Cl-] (centres undefined)", "Absolute IC50 (XBP1)": "10 µM"}
{"MOLECULE": "CCC(=O)N1N=C(c2c(O)nc3ccc(Cl)cc3c2-c2ccccc2)CC1c1ccco1 (centres undefined)", "Absolute IC50 (XBP1)": "10 µM"}
{"MOLECULE": "Clc1nss/c1=N\\c1ccc(Br)cc1", "Absolute IC50 (XBP1)": "< 10 µM"}

----------
Recorded below: AC50, system Cytochrome P450 2D6 (Homo sapiens).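 Further: CYP2D6 member of a cytochrome P450 panel assay.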

{"SMILES RECORD": "O[C@]1(c2ccccc2)c2ccccc2N=C2NCCN21", "AC50": "2.51 µM (inconclusive)"}
{"SMILES RECORD": "O=C(N/N=C/c1cc([N+](=O)[O-])ccc1N1CCNCC1)c1ccc([N+](=O)[O-])cc1", "AC50": "25.1 µM (inconclusive)"}
{"SMILES RECORD": "N#CCSc1nc2ccc(N3CCCCC3)cc2c(=O)n1Cc1ccccc1", "AC50": "5.62 µM (inconclusive)"}
{"SMILES RECORD": "COC(=O)N1CCC2(CC1)CCN(c1ccccn1)CC2", "AC50": "10 µM (inconclusive)"}
{"SMILES RECORD": "Cc1ccc2nc(-c3cccnc3)oc2c1", "AC50": "5.62 µM (inconclusive)"}
{"SMILES RECORD": "Cc1ccc(OCCCOc2cccc3cccnc23)cc1C", "AC50": "17.8 µM (inconclusive)"}

----------
Molecular target: Rac GTPase-activating protein 1 (Homo sapiens)
Sequence (Q9H0H5 whole entry): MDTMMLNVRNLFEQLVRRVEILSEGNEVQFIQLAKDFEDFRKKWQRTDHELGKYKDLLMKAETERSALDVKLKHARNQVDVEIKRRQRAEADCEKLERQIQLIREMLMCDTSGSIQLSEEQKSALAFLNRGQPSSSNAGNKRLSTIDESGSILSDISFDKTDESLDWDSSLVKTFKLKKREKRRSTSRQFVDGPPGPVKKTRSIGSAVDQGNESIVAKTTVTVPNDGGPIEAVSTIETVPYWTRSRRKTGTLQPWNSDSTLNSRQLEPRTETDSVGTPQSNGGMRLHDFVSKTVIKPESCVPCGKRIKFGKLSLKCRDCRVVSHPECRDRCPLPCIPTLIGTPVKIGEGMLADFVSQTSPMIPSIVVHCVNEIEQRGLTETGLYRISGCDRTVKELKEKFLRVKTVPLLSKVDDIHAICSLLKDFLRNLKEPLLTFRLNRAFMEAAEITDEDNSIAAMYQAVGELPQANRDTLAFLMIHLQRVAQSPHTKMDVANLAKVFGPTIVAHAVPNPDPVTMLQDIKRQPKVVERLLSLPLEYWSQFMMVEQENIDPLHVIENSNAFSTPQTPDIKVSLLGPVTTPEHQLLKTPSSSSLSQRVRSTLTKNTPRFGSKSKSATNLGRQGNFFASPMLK
Assay: MgcRacGAP GTPase-activating activity inhibitors, confirmation, biochemical, ADP Hunter fluorescence, primary and confirmatory (AID 624330)
Format: functional
The source made the active and inactive calls.
ASSAY READOUT: IC50

{"MOLECULE": "O=C(c1ccc(Cl)c(S(=O)(=O)N2CCCCCC2)c1)N1CCN(c2ccc(O)cc2)CC1", "ASSAY READOUT": "IC50", "REPORTED VALUE": "33.7 µM (active)"}
{"MOLECULE": "CCN1C(=O)/C(=C2/C=Cc3cc(C)ccc3N2CC)N(C)C1=S", "ASSAY READOUT": "IC50", "REPORTED VALUE": "60.4 µM (active)"}
{"MOLECULE": "Cc1nc2ccc(C(=O)Nc3ccc(N(C)C)cc3)cc2s1", "ASSAY READOUT": "IC50", "REPORTED VALUE": "39.3 µM (active)"}
{"MOLECULE": "NC(S)=NNc1ccnc2cc(Cl)ccc12", "ASSAY READOUT": "IC50", "REPORTED VALUE": "110 µM (active)"}
{"MOLECULE": "CCOc1cc(/C=N/NC(=O)Nc2ccccc2)ccc1O", "ASSAY READOUT": "IC50", "REPORTED VALUE": "32.5 µM (active)"}
{"MOLECULE": "O=C(CNc1ccc2c(c1)OCO2)N/N=C\\c1ccccc1Cl", "ASSAY READOUT": "IC50", "REPORTED VALUE": "114 µM (active)"}
{"MOLECULE": "Cn1cccc1/C=N/N1CCN(Cc2ccccc2Cl)CC1", "ASSAY READOUT": "IC50", "REPORTED VALUE": "82.1 µM (active)"}
{"MOLECULE": "COc1cc(/C=N/NP(=S)(c2ccccc2)c2ccccc2)ccc1O", "ASSAY READOUT": "IC50", "REPORTED VALUE": "109 µM (active)"}
{"MOLECULE": "CCOc1cc(/C=N/NC(=O)c2cc(C3CC3)[nH]n2)ccc1O", "ASSAY READOUT": "IC50", "REPORTED VALUE": "54.9 µM (active)"}
{"MOLECULE": "CCOc1cc(C=NNC(=O)CCCC(=O)NN=Cc2ccc(O)c(OCC)c2)ccc1O", "ASSAY READOUT": "IC50", "REPORTED VALUE": "50.4 µM (active)"}
{"MOLECULE": "COc1cc(/C=C2\\SC(=S)N(NC(=O)c3ccc(O)cc3)C2=O)ccc1O", "ASSAY READOUT": "IC50", "REPORTED VALUE": "59 µM (active)"}
{"MOLECULE": "COc1ccc(O/C(=N\\S(=O)(=O)c2ccccc2)c2ccccc2)cc1", "ASSAY READOUT": "IC50", "REPORTED VALUE": "45.5 µM (active)"}
{"MOLECULE": "O=C(O)CCn1cc(C=C2C(=O)NC(=S)NC2=O)c(-c2cccc(Br)c2)n1", "ASSAY READOUT": "IC50", "REPORTED VALUE": "89.9 µM (active)"}
{"MOLECULE": "O=C1C(Cl)=C(NC(=O)c2ccccc2)C(=O)C(Cl)=C1NC(=O)c1ccccc1", "ASSAY READOUT": "IC50", "REPORTED VALUE": "6.06 µM (active)"}
{"MOLECULE": "Clc1nss/c1=N\\c1ccc(Br)cc1", "ASSAY READOUT": "IC50", "REPORTED VALUE": "37.5 µM (active)"}
{"MOLECULE": "COc1ccc(N2CCN(C(CNS(=O)(=O)c3cccs3)c3cccnc3)CC2)cc1 (centres undefined)", "ASSAY READOUT": "IC50", "REPORTED VALUE": "120 µM (active)"}
{"MOLECULE": "Cn1ccc(=Nc2ccc(NC(=O)c3ccc(/N=c4\\ccn(C)c5ccc([N+](=O)[O-])cc45)cc3)cc2)cc1", "ASSAY READOUT": "IC50", "REPORTED VALUE": "35.5 µM (active)"}
{"MOLECULE": "CCN(CC)CCCNCC(=O)Nc1cc(C)on1", "ASSAY READOUT": "IC50", "REPORTED VALUE": "99.4 µM (active)"}
{"MOLECULE": "Brc1ccccc1OCCCCCN1CCOCC1", "ASSAY READOUT": "IC50", "REPORTED VALUE": "146 µM (active)"}
